Cited source: ChEMBL document CHEMBL1764970

biological target: Lysosomal acid glucosylceramidase (Homo sapiens); experiment: Inhibition of glucocerebrosidase in human intact fibroblasts at 50 uM after 24 hrs by fluorometric analysis
Please use yes (1) whenever inhibition is not below 70%, and no (0) whenever it is.

Answered examples (5):
>  <given smiles>
O[C@@H]1[C@@H](O)[C@H](O)[C@@H](NCc2cn(Cc3cc(OCc4ccccc4)cc(OCc4ccccc4)c3)nn2)[C@H](O)[C@H]1O

>  <label class>
yes (1)

$$$$
>  <given smiles>
OCCCCCCCCCCn1cc(CN[C@H]2[C@H](O)[C@@H](O)[C@H](O)[C@@H](O)[C@@H]2O)nn1

>  <label class>
no (0)

$$$$
>  <given smiles>
CCCCCCCCCCCn1cc(CN[C@H]2[C@H](O)[C@@H](O)[C@H](O)[C@@H](O)[C@@H]2O)nn1

>  <label class>
yes (1)

$$$$
>  <given smiles>
O[C@@H]1[C@@H](O)[C@H](O)[C@@H](NCc2cn(CCC(c3ccccc3)c3ccccc3)nn2)[C@H](O)[C@H]1O

>  <label class>
yes (1)

$$$$
>  <given smiles>
O[C@@H]1[C@@H](O)[C@H](O)[C@@H](NCc2cn(CCCCC3CCCCC3)nn2)[C@H](O)[C@H]1O

>  <label class>
no (0)

$$$$

Switching to the query record.
query: Determine whether this compound has inhibition no lower than 70%: "O[C@@H]1[C@@H](O)[C@H](O)[C@@H](NCc2cn(CC34CC5CC(CC(C5)C3)C4)nn2)[C@H](O)[C@H]1O"
result: no (0)

###

Target: Ceramide glucosyltransferase (Homo sapiens) (UniProt Q16739)
Sequence (whole entry): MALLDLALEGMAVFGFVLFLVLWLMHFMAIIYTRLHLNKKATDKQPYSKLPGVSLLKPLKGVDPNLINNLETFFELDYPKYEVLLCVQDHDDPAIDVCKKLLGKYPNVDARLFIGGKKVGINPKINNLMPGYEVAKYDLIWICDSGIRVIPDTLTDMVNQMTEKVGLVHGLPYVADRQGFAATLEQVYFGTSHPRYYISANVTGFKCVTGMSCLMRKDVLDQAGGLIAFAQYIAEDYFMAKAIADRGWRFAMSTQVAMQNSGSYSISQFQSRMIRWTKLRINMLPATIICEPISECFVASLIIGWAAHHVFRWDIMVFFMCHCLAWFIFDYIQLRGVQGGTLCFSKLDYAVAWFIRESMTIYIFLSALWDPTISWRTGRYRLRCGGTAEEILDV
Test: Inhibition of glucosylceramide synthase in human A549 cells at 250 uM after 35 mins by fluorometric analysis
Assay type: cell-based
measured metric: inhibition (%)
Just the number in %, nothing appended.

>  <given smiles>
O[C@@H]1[C@@H](O)[C@H](O)[C@@H](NCc2cn(CC34CC5CC(CC(C5)C3)C4)nn2)[C@H](O)[C@H]1O

>  <test target>
Ceramide glucosyltransferase (Homo sapiens) (UniProt Q16739)

>  <measured metric>
inhibition

>  <quantitative result>
32

$$$$

query: Quick check: inhibition of "O[C@@H]1[C@@H](O)[C@H](O)[C@@H](NCc2cn(CCCCC3CCCCC3)nn2)[C@H](O)[C@H]1O" ?
result: 8

query: Quick check: inhibition of "O[C@@H]1[C@@H](O)[C@H](O)[C@@H](NCc2cn(Cc3cc(OCc4ccccc4)cc(OCc4ccccc4)c3)nn2)[C@H](O)[C@H]1O" ?
result: 9

query: Quick check: inhibition of "OCCCCCCCCCCn1cc(CN[C@H]2[C@H](O)[C@@H](O)[C@H](O)[C@@H](O)[C@@H]2O)nn1" ?
result: 28

query: Quick check: inhibition of "CCCCCCCCCCCn1cc(CN[C@H]2[C@H](O)[C@@H](O)[C@H](O)[C@@H](O)[C@@H]2O)nn1" ?
result: 29

query: Quick check: inhibition of "O[C@@H]1[C@@H](O)[C@H](O)[C@@H](NCc2cn(CCC(c3ccccc3)c3ccccc3)nn2)[C@H](O)[C@H]1O" ?
result: 18

###

Please consider the recorded pIC50 for Oligo-1,6-glucosidase IMA1 (Saccharomyces cerevisiae S288c) in what follows.
pIC50: −log10 of the molar value.

In the examples that follow, each entry is paired with its recorded pIC50.
>  <given smiles>
CCCCCCCCCCn1cc(CN[C@H]2[C@H](O)[C@@H](O)[C@H](O)[C@@H](O)[C@@H]2O)nn1

>  <measured metric>
pIC50

>  <result>
< 4.00

$$$$
>  <given smiles>
CCCCCCCCCCN[C@H]1[C@H](O)[C@@H](O)[C@H](O)[C@@H](O)[C@@H]1O

>  <measured metric>
pIC50

>  <result>
< 4.00

$$$$

query: Quick check: pIC50 of "CCCCCCCCCCCn1cc(CN[C@H]2[C@H](O)[C@@H](O)[C@H](O)[C@@H](O)[C@@H]2O)nn1" ?
result: < 4.00

query: Quick check: pIC50 of "O[C@@H]1[C@@H](O)[C@H](O)[C@@H](NCc2cn(CCC(c3ccccc3)c3ccccc3)nn2)[C@H](O)[C@H]1O" ?
result: < 4.00

query: Quick check: pIC50 of "O[C@@H]1[C@@H](O)[C@H](O)[C@@H](NCc2cn(CCCCC3CCCCC3)nn2)[C@H](O)[C@H]1O" ?
result: < 4.00

###

Reported pIC50 values for the following compounds.
molecular target: Lysosomal acid glucosylceramidase (Homo sapiens, UniProt P04062); test: Inhibition of recombinant glucocerebrosidase in McIlvaine buffer at pH 5.2 after 10 mins by fluorometric analysis
Answer as the number alone; pIC50 is minus log10 of concentration in mol/L.

query: Quick check: pIC50 of "O[C@@H]1[C@@H](O)[C@H](O)[C@@H](NCc2cn(CCCCC3CCCCC3)nn2)[C@H](O)[C@H]1O" ?
result: 5.82

query: Quick check: pIC50 of "O[C@@H]1[C@@H](O)[C@H](O)[C@@H](NCc2cn(CCCC3CCCCC3)nn2)[C@H](O)[C@H]1O" ?
result: 5.36

query: Quick check: pIC50 of "CC(C)(C)OCCCOCCCn1cc(CN[C@H]2[C@H](O)[C@@H](O)[C@H](O)[C@@H](O)[C@@H]2O)nn1" ?
result: 3.49

###

Molecular target: UniProtKB P04062
Sequence (P04062 whole entry): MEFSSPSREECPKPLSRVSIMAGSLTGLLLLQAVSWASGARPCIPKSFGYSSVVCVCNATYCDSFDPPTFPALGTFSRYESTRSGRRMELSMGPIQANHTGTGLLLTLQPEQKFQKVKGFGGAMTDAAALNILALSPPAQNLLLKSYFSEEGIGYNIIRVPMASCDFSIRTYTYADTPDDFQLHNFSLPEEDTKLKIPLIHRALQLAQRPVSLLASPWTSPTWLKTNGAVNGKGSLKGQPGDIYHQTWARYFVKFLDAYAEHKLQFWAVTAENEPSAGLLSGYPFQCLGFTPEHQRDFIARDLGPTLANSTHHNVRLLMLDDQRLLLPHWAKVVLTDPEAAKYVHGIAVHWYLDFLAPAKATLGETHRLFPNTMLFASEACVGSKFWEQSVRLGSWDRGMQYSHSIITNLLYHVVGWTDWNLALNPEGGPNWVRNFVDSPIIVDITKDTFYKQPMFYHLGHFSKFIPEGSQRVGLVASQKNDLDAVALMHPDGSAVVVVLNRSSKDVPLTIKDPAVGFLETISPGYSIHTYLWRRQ
Assay: Inhibition of recombinant glucocerebrosidase in McIlvaine buffer at pH 5.2 after 10 mins by fluorometric analysis
Reported IC50 values for the following molecules.
Note to self: number, then unit, no commentary.

In the examples that follow, each entry is paired with its recorded IC50.
>  <given smiles>
COCCCOCCCOCCCn1cc(CN[C@H]2[C@H](O)[C@@H](O)[C@H](O)[C@@H](O)[C@@H]2O)nn1

>  <IC50>
453 µM

$$$$
>  <given smiles>
CN1CCN(Cc2cccc(Cn3cc(CN[C@H]4[C@H](O)[C@@H](O)[C@H](O)[C@@H](O)[C@@H]4O)nn3)c2)CC1

>  <IC50>
66.5 µM

$$$$

query: Quick check: IC50 of "O[C@@H]1[C@@H](O)[C@H](O)[C@@H](NCc2cn(CC34CC5CC(CC(C5)C3)C4)nn2)[C@H](O)[C@H]1O" ?
result: 2.2 µM
